Source of measurements: the nanobody polyreactivity screen of Harvey et al. (2022)

- TEST METHOD NOTES: yeast display, Sf9 membrane polyspecificity reagent, FACS + sequencing; frameworks hold sequencing errors
MEASUREMENT KIND: polyreactivity (PSR sort gate)

| ENTRY SEQUENCE | polyreactivity (PSR sort gate) |
| --- | --- |
| QVQLVESGGGLVQAGGSLRLSCAASGSTFRSYTMGWYRQAPGKERELVATIDWSAGNTRYADSVKGRFTISRDNAKNTVYLQMNSLKPEDTAVYYCNKDAGLWVSGTLYYWGQGTQVTVSS | low polyreactivity |
| QVQLVESGGGLVQAGGSLRLRCAASGYTLGPYAMGWYRQAPGKEREEVAALSWGGGRTYYADSVKGRFTISRDNAKNTVYLQMNSLKPEDTAVYYCGAKWSHVRDGPKYDYWGQGTQVTVSS | low polyreactivity |
| QVQLVESGGGLVQAGGSLRLSCAPSGLIFYGYAMGWYRQAPGKERELVAAISCSGGRTYYADSVKGRFTISRDNAKNTVYLQMNSLKPEDTAVYYCNVRNRYRPYLPFWPDDYWGQGTQVTVSS | high polyreactivity |
| QVQLVESGGGLVQAGGSLRLSCAASGSILDPNAMGWYRQAPGKESELVANITNGGRTNFADSVKGRFTISRDNAKNTVYFQMNRLKPEDTAVYYCAKDSTFNSVTVLAPIIYDSWGQATQVTVSS | low polyreactivity |
| QVQHVESGGGLVQAGGSLRLSCAAYYAMGWYRQAPGKERELVAAISSTGRTNYADSVKGRFTISRDNAKNTVYLQMNSLKPEDTAVYYCNAGDPSGMDYWGQGTQVTVSS | low polyreactivity |
| QVQLVESGGALVQAGGSLRLSCAASAITYRYYAMGWNRQAPGKERELVATITRSGGSTYYADSVKGRFTISRDNAKNTVYLQMNSLKPEDTAVYYCAKGLYSTRYYYWGQGTQVTVSS | high polyreactivity |
| QVQLVESGGGLVQAGGSLRLSCAASGFTFISNAMGWYRQAPGKERELVAAISSSGGRTYYADSVKGRFTISRDNAKNTVYLQMNRLKPEDTAVYYCNAVRSLLYSRKIEYDYWGQGTQVTVSS | low polyreactivity |
| QVQLEESGGGLVQAGGSLRLSCAASGSTFYGYGMGWYRQAPGKERELVAAITGSGDTTYYADSVKGRFTISRDNAKNTVYLQMNSLKTEDTAVYYCNARWHAEYDYWGQGTQVTVSS | low polyreactivity |
| QVQLVESGGGLVQAGGSLRLICAASGIIFGGYDMGWYRQAPGKERELVAGIRSGGSTYYADSVKGRFTISRDNAKNTVYLQMNSLKPEDTAVYYCAKYVPIPYYSYLFGSYDYWGQGTQVTVSS | low polyreactivity |
| QVQLVESGGGLVQAGGSLRLSCAASGFILQRYAMGWYRKAPGKERELVAAITSSGGRTYYADSVKGRFTISRDNANNTVYLQMNSLKPEDTAVYYCNTVLVYYRMIKFEYWGQGTQVTVSS | high polyreactivity |

Given QVQLVESGGGLVQAGGSLRLSCAASGRIFPAYAMGWYRQAPGKERELVAAITGGGSTNYADSVKGRFTISRDNAKNTVYLQMNSLKPEDTAVYYCNAVTGTYGWAPQAREQEDYWGQGTQVTVSS , state its recorded polyreactivity (PSR sort gate).
low polyreactivity
